Reference source for all entries: patent US10975084B2

# study_system: UniProt Q9UGL1
# test_description: KDM5B TR-FRET Enzyme Activity Assay
# particulars: LANCE TR-FRET; 5 nM full-length recombinant KDM5B; ten point titration 100000 nM to 5.08 nM
Give measured IC50 for each item. Keep answers brief.
Give bare numbers, in nM.

Worked cases, answers included:
- molecule: "Cc1nc(-c2ccccc2)sc1-c1[nH]c2ncnn2c(=O)c1C(C)C [Example 11-116]"
  IC50 (nM): 444
- molecule: "CC(C)c1c(-c2cnn(CCS(C)(=O)=O)c2)[nH]c2ncnn2c1=O [Example 11-47]"
  IC50 (nM): 6.93
- molecule: "CC(C)c1c(-c2ccc(C(=O)N(C)C)cc2)[nH]c2ncnn2c1=O [Example 11-86]"
  IC50 (nM): 12.6
- molecule: "CCCc1cc(=O)n2ncnc2[nH]1 [Example 8-6]"
  IC50 (nM): 47600
- molecule: "CC(C)c1c(-c2ccc3c(c2)OCC(=O)N3)[nH]c2ncnn2c1=O [Example 11-102]"
  IC50 (nM): 17.8

# ---- query molecule ----
q: IC50 lookup needed for CC(C)c1c(-c2ccc(F)nc2)[nH]c2ncnn2c1=O [Example 11-129] , thanks.
a: 66.8

* * *

Please provide measured pIC50 for the entries that follow.
# study_system: KDM5B (Homo sapiens (Human))
# test_description: KDM5B TR-FRET Enzyme Activity Assay
# particulars: LANCE TR-FRET; 5 nM full-length recombinant KDM5B; ten point titration 100000 nM to 5.08 nM
One number for each entry, as −log10 of the molar value.

In the examples that follow, each entry is paired with its recorded pIC50.
- chemical_string: "CC(C)c1c(-c2ccc(Cl)cc2)[nH]c2ncnn2c1=O"
  pIC50: 7.15
- chemical_string: "O=c1cc(-c2cccc(F)c2)[nH]c2ncnn12"
  pIC50: 5.61
- chemical_string: "CC(C)c1c(-c2ccc(-c3nccn3C)cc2)[nH]c2ncnn2c1=O"
  pIC50: 8.14

I need pIC50 for every entry listed below, if you could help.
1. CC(C)c1c(-c2ccc3c(c2)CC(=O)N3)[nH]c2ncnn2c1=O
2. CC(C)c1c(-c2cnn(C)c2)[nH]c2ncnn2c1=O
3. CC(C)(C)c1c(-c2cnn(C(C)(C)C)c2)[nH]c2ncnn2c1=O
4. Cn1cc(-c2[nH]c3ncnn3c(=O)c2C(C)(C)C)cn1
5. C=C(CCC)c1[nH]c2ncnn2c(=O)c1C(C)C
6. CC(C)c1c(-c2cnn(C(C)(C)CO)c2)[nH]c2ncnn2c1=O

a:
1. 8.16
2. 7.79
3. 6.04
4. 5.90
5. 6.09
6. 8.29

* * *

Exercise: state measured IC50 for each of the molecules provided.
# study_system: KDM5B (Homo sapiens (Human), UniProt Q9UGL1)
# Sequence (Q9UGL1 whole entry): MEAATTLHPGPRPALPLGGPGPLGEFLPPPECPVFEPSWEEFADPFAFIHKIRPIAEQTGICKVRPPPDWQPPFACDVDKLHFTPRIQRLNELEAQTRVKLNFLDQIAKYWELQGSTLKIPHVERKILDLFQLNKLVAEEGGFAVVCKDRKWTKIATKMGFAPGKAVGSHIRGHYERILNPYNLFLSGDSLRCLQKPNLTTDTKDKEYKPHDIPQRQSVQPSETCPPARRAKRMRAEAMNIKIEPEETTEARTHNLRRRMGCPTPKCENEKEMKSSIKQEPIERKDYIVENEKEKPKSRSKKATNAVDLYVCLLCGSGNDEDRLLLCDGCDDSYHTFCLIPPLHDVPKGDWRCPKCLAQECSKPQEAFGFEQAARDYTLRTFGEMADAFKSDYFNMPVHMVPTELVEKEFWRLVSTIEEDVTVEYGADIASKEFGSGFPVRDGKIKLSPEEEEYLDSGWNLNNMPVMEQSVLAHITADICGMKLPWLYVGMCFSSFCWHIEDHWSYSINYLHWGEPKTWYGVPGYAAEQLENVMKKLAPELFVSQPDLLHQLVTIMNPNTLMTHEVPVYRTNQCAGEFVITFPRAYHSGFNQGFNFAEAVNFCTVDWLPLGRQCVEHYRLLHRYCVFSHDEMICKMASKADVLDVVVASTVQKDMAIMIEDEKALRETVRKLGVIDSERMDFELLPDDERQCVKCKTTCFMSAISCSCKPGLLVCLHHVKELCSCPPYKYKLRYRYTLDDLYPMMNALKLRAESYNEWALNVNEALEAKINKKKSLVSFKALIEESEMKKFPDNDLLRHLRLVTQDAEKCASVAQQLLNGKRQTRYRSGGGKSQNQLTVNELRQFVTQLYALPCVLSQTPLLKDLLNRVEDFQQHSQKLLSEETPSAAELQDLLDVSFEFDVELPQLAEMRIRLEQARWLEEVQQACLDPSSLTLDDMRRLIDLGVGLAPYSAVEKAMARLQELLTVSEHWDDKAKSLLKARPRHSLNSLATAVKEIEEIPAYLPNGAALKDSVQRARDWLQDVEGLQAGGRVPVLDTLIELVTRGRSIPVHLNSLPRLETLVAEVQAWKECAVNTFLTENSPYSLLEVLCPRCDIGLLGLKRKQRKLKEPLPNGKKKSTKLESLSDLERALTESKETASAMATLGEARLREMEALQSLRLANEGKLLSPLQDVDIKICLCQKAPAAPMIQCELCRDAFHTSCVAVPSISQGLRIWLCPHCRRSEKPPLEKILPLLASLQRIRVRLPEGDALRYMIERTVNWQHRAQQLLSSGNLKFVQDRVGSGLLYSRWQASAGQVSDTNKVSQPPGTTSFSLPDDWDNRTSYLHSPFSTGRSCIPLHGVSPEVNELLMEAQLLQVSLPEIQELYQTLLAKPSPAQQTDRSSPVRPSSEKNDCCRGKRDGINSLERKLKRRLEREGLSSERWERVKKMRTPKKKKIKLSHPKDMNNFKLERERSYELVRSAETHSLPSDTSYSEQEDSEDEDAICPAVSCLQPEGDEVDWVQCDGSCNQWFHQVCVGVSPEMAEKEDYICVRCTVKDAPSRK
# test_description: KDM5B TR-FRET Enzyme Activity Assay
# particulars: LANCE TR-FRET; 5 nM full-length recombinant KDM5B; ten point titration 100000 nM to 5.08 nM
Answers are plain numbers, in nM.

- chemical_string: "CC(C)c1c(-c2cc(-c3ccccc3)cs2)[nH]c2ncnn2c1=O"
  IC50 [nM]: 76.2

Batch request: IC50 per item, same order as input.
1. CC(C)c1c(-c2ccsc2)[nH]c2ncnn2c1=O
2. CC(C)c1c(-c2ccc(CN3CCOCC3)s2)[nH]c2ncnn2c1=O

a:
657
5.08

* * *

# study_system: KDM5B (Homo sapiens (Human))
# test_description: KDM5B TR-FRET Enzyme Activity Assay
# particulars: LANCE TR-FRET; 5 nM full-length recombinant KDM5B; ten point titration 100000 nM to 5.08 nM
Assign log10 of IC50 to each entry below.
A value of 2 here means IC50 of 100 in nM, since values are log10.

- compound: "Cn1cc(-c2cc(=O)n3ncnc3[nH]2)cn1 [Example 8-31]"
  log10 of IC50: 3.52

For each of the items listed, what is its log10 of IC50?
1. Cc1c(-c2[nH]c3ncnn3c(=O)c2C(C)C)cnn1-c1ccccc1 [Example 11-114]
2. CCc1c(-c2ccccc2)[nH]c2ncnn2c1=O [Example 8-34]
3. CC(C)c1c(-c2ccc(N3CCNCC3)cc2)[nH]c2ncnn2c1=O [Example 11-118]
4. CC(C)c1c(-c2cnn(Cc3ccccc3)c2)[nH]c2ncnn2c1=O [Example 11-9]
5. CC(C)c1c(-c2cnn(Cc3cccs3)c2)[nH]c2ncnn2c1=O [Example 11-110]
6. CC(C)c1c(-c2cccc(F)c2)[nH]c2ncnn2c1=O [Example 11-33]
7. Cc1cc(=O)n2ncnc2[nH]1 [Example 8-4]

a:
[2.53, 2.72, 0.99, 0.86, 0.83, 2.13, 4.42]

Would you be so kind as to report log10 of IC50 for each listed record?
1. CC(C)c1c(-c2cnn(Cc3cccnc3)c2)[nH]c2ncnn2c1=O [Example 11-40]
2. CC(C)c1c(-c2ccnc3ccccc23)[nH]c2ncnn2c1=O [Example 11-75]
3. CC(C)c1c(-c2cnc3[nH]ccc3c2)[nH]c2ncnn2c1=O [Example 11-68]

a:
1: 0.76; 2: 2.96; 3: 1.30

For each entry beneath this line, provide reported log10 of IC50.
1. O=c1cc(C2CCOCC2)[nH]c2ncnn12 [Example 8-20]
2. CC(C)Cn1cc(-c2[nH]c3ncnn3c(=O)c2C(C)C)cn1 [Example 11-12]
3. O=c1cc(-c2ccc(Cl)cc2)[nH]c2ncnn12 [Example 8-26]
4. CC(C)c1c(-c2cccs2)[nH]c2ncnn2c1=O [Example 11-147]

a:
1: 4.91; 2: 0.71; 3: 3.14; 4: 2.62

* * *

# study_system: KDM5B (Homo sapiens (Human))
# test_description: KDM5B TR-FRET Enzyme Activity Assay
# particulars: LANCE TR-FRET; 5 nM full-length recombinant KDM5B; ten point titration 100000 nM to 5.08 nM
quantity_name: pIC50
Numbers only, as −log10 of the molar value.

Recorded results for 3 compounds are shown here.
- compound: "CC(C)CCn1cc(-c2[nH]c3ncnn3c(=O)c2C(C)C)cn1 [Example 11-146]"
  pIC50: 8.28
- compound: "CC(C)c1c(-c2cnn(C(C)(C)C)c2)[nH]c2ncnn2c1=O [Example 11-145]"
  pIC50: 8.29
- compound: "O=c1cc(-c2ccc(F)cc2)[nH]c2ncnn12 [Example 8-8]"
  pIC50: 5.89

Go through the list and state pIC50 for each entry.
1. CC(C)c1c(C2=CCCOC2)[nH]c2ncnn2c1=O [Example 11-31]
2. O=c1cc(-c2ccccn2)[nH]c2ncnn12 [Example 8-23]

a:
1. 6.43
2. 5.62
